- TARGET OF ASSAY: UniProt P89446
- Sequence (P89446 whole entry): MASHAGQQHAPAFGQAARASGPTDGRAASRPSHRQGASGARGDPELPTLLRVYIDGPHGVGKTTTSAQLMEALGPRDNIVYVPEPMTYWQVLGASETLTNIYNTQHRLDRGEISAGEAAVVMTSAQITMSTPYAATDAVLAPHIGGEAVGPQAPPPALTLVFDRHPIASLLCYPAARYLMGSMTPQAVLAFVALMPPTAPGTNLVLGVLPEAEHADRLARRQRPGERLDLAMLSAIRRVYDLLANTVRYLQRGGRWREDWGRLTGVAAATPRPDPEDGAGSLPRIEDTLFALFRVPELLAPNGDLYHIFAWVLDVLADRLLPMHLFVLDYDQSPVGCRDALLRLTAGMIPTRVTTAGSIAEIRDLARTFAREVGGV
ASSAY READOUT: IC50 (nM)

[1] CCc1cn([C@H]2C[C@H](O)[C@@H](CCC(O)Cc3c(Cl)cccc3Cl)O2)c(=O)[nH]c1=O (mixture of isomers) [Example 5]
[2] CCc1cn([C@H]2C[C@H](O)[C@@H](CCC(=O)Cc3c(Cl)cccc3Cl)O2)c(=O)[nH]c1=O [Example 3]
[3] CCc1cn([C@H]2C[C@H](O)[C@@H](CS(=O)(=O)Cc3ccccc3)O2)c(=O)[nH]c1=O [Example 9]
[4] CCc1cn([C@H]2C[C@H](O)[C@@H](CSCc3c(Cl)cccc3Cl)O2)c(=O)[nH]c1=O [Example 14c]
[5] CCc1cn([C@H]2C[C@H](O)[C@@H](CCCCc3ccccc3)O2)c(=O)[nH]c1=O [Example 7]
Task: List the items above again, this time ordered by increasing IC50. A ranking is expressed here by listing the labels in the requested order.
Result: 2, 1, 4, 5, 3
